In this section, each of the binders is paired with its reported EC50 of intracellular calcium release in CHO-R1c cells.
- target under test: human FGFR1c (human), P11362
- protocol notes: cell-based or functional assay
Please state the figure in nM; there is no need to write the unit.

C8-71C_mb7 (designed binder) MEKKIGPEEILERAKESLERAREASERGDEEEFRKAAEKALELAKRLVEQAKKEGDPELVLEAARVALWVAELAAKNGDKEVFKKAAESALEVAKRLVEVASKEGDPDLVAWAALVALWVAFLAFLNGDKEVFKKAAESALEVAKALMEVAMKVGAPWLVELAIAVARAVWLLAELFGDEEVRRRAEAFEIILRIAAIAVKAWLGGGGSDRRKEMDKVYRTAYKRITSTPDKEKRKEVVKEATEQLRRIAKDEEEKKKAAYMISFLKTLGSLEHHHHHH : 3.09
C6-79C_mb7 (designed binder) MGSSDEEEARELEERAREAAKRAIEAAKRTGDPRVRELAEELVKLAIWAAVEVWLDPSSSDVNEALKLIVEAIEAAVRALEAAERTGDPEVRELARELVRLAVEAAEEVQRNPSSSDVNEALKLIVIAIEAAVRALEAAERTGDPEVRELARELVRLAVEAAEEVQRNPSSEEVNEALRKIIKLILFAVMVLELAEEIGDPTWREMARRAVREAVELAEEVQRDPSGWLGHGSDRRKEMDKVYRTAYKRITSTPDKEKRKEVVKEATEQLRRIAKDEEEKKKAAYMISFLKTLGSLEHHHHHH : 0.38

As a next step, examine the binder that follows.
Name the reported EC50 of intracellular calcium release in CHO-R1c cells value associated with the binder C2-58-2X_mb7 (designed binder) MHHHHHHAENLYFQSGSDEELLRELLKLLLKLLEQMGDEEARRVVEELREELEKKGDPRALVLAFALVILVFLLRILRELGDEELVRRVEELWEELLKEGDPQAMMEVFKLVQELQERRGSGSDRRKEMDKVYRTAYKRITSTPDKEKRKEVVKEATEQLRRIAKDEEEKKKAAYMISFLKTLGS
26

Numbers sourced from patent US20260234209A1.
